# Tested on: HL-60
# protocol.text: NCI tumour cell line growth inhibition, 48 h
The source made the active and inactive calls. Cut-off read from the data, not from the text of the source: active = GI50 up to about 1.1 µM and inactive = higher.
property.label: GI50

compound	property.label	reported.value
CCN(CC)CCOc1ccc(N2C(=O)c3cc(OC)c(OC)cc3C2=O)cc1	GI50	> 100 µM (inactive)
Nc1nc2ncn(CC(O)COC(=O)c3ccccc3)c2c(=O)[nH]1 (centres undefined)	GI50	> 100 µM (inactive)
CC(C)NC(=O)OCc1c(COC(=O)NC(C)C)c(-c2cc[n+](COC(=O)C3CCCCC3)cc2)n2c1CCC2	GI50	32.4 µM (inactive)
O=S(=O)(O)c1cc2ccc1/C=C\c1ccc(cc1S(=O)(=O)O)/N=N\c1ccc(c(S(=O)(=O)O)c1)/C=C\c1ccc(cc1S(=O)(=O)O)/N=N\2	GI50	> 100 µM (inactive)
Clc1ccc2c(c1)[nH]c1c2nc2sccn21	GI50	> 100 µM (inactive)

# next compound below
GI50 in this record for CC(C)CC(=O)OC[n+]1ccc(-c2c(COC(=O)NC(C)C)c(COC(=O)NC(C)C)c3n2CCC3)cc1 : 65.8 µM (inactive)

###

# Test system: OVCAR-3
# protocol.text: NCI tumour cell line growth inhibition, 48 h
Activity calls are given as the source filed them. Cut-off read from the data, not from the text of the source: active = GI50 up to about 1.1 µM and inactive = higher.
Choose one outcome from this list and give only that: active, inactive

The examples below pair each entry with its known result.
molecule	measured.target	label.class
CCOCC(=O)N[C@H]1CCc2cc(OC)c(OC)c(OC)c2-c2ccc(OC)c(=O)cc21	OVCAR-3	active
CCN(CC)CCOC(=O)c1ccc(N)cc1.CCOC(=O)Nc1ccc(S(=O)(=O)OC)cc1.CCOC(=O)Nc1ccc(S(=O)(=O)OC)cc1.Nc1ccc(C(=O)O)c(O)c1	OVCAR-3	inactive
Cc1nc(Cl)nc(Cl)c1C	OVCAR-3	inactive
C=CCCC1CCCCC/C1=N\N(C)C (stereo not given)	OVCAR-3	inactive

Would you kindly look at the next entry?
Task: Test call for this molecule, please: CC(=O)C1C(=O)NC(=O)C1=O (stereo not given)
Result: inactive

###

# Test system: TK-10
# protocol.text: NCI tumour cell line growth inhibition, 48 h
Active and inactive are the calls of the source. Rule as the data show it: active = GI50 up to about 1.1 µM and inactive = higher.
property.label: GI50

# example entries with known answers
molecule	reported.value
CC1=C[C@]2(CC(C)C3C(CC4(C)C5CCC6C(C)(C)C(=O)CC[C@@]67C[C@@]57CC[C@]34C)O2)OC1=O (stereo not given in full)	26 µM (inactive)
Nc1nc2ncn(CC(O)COC(=O)c3ccccc3)c2c(=O)[nH]1 (stereo not given)	> 100 µM (inactive)
O=c1[nH]nc(-c2ccccc2)n1/N=C/c1cccc([N+](=O)[O-])c1	> 100 µM (inactive)
O=C(O)c1ccc2c(c1)CC1(C2)Cc2cc3c(cc2C1=O)CCC3 (stereo not given)	> 100 µM (inactive)

# next molecule below
GI50 in this record for CN(C)C(=O)Oc1ccc(-c2cn3cc(NC(=O)c4ccccc4)ccc3n2)cc1 : > 100 µM (inactive)

###

# Test system: NCI-H460
# protocol.text: NCI tumour cell line growth inhibition, 48 h
Activity calls are given as the source filed them. No stated cut-off is given here; in the data, active = GI50 up to about 1.1 µM and inactive = higher.
Choose one outcome from this list and give only that: class 1 = active, class 0 = inactive

The examples below pair each entry with its known result.
compound	label.class
O=C1/C(=C/c2ccc(O)c([N+](=O)[O-])c2)CCC/C1=C\c1ccc(O)c([N+](=O)[O-])c1	class 0
C=CCN1C(=O)CS/C1=N\NC(=O)c1c(C)nc2sccn12	class 0
CN(C)C(=O)Oc1ccc(-c2cn3cc(NC(=O)c4ccccc4)ccc3n2)cc1	class 0
CC(NC1=NCCO1)c1cccc([N+](=O)[O-])c1 (stereo not drawn)	class 0
CC(=O)CCCCn1c(=O)c2c(nc(Br)n2C)n(C)c1=O	class 0
Cc1nnc(N)nc1/C=C\c1cccs1	class 0
O=C(/C=C/c1cccc([N+](=O)[O-])c1)c1ccc([N+](=O)[O-])cc1	class 0
[N-]=[N+]=CC(=O)OCC1NC(=O)C(COC(=O)C=[N+]=[N-])NC1=O (stereo not drawn)	class 0

Task: Test call for this compound, please: N#Cc1c(Cl)c2cc([N+](=O)[O-])ccc2n2c1nc1ccccc12
Result: class 0

Task: Test call for this compound, please: O=c1[nH]nc(-c2ccccc2)n1/N=C/c1cccc([N+](=O)[O-])c1
Result: class 0

Task: Test call for this compound, please: O=C1N/C(=N/N=C\c2ccccc2)N/C1=C/c1ccccc1
Result: class 0

Task: Test call for this compound, please: CC(=O)NNc1nc(-c2ccc([N+](=O)[O-])cc2)c(C#N)c(=O)n1C
Result: class 0

Task: Test call for this compound, please: CCCCCCCCCC[C@H](O)[C@H]1CC[C@@H]([C@@H](O)CC[C@H](O)[C@@H]2CCC(CCCCCCC[C@@H](O)CC3=C[C@H](C)OC3=O)O2)O1 (stereo partly drawn)
Result: class 0

Task: Test call for this compound, please: CCOC(=O)NC(Nc1ccc(F)cc1F)(C(F)(F)F)C(F)(F)F
Result: class 0

Task: Test call for this compound, please: C[N+]1=c2c3cccc4cccc(c(=O)n2CC1)c43
Result: class 0

Task: Test call for this compound, please: C=CCn1cnc2c(O)nc(Nc3ccccc3)nc21
Result: class 0

Task: Test call for this compound, please: CC1=COC(C)(C=C(C#N)C#N)CC1 (stereo not drawn)
Result: class 0

Task: Test call for this compound, please: CSc1n/c(=N\c2ccccc2)sn1-c1ccccc1
Result: class 0

Task: Test call for this compound, please: CC(C)(C)OC(=O)N1C(=O)OC[C@@H]2C=C[C@@H]21
Result: class 0

Task: Test call for this compound, please: C=CCCC1CCCCC/C1=N\N(C)C (stereo not drawn)
Result: class 0

###

# Test system: 786-0
# protocol.text: NCI tumour cell line growth inhibition, 48 h
Calls of active or inactive are those of the source. Cut-off read from the data, not from the text of the source: active = GI50 up to about 1.1 µM and inactive = higher.
property.label: GI50

# example entries with known answers
molecule	GI50
COc1ccccc1/C=C/C1=NN(c2cccc(S(=O)(=O)O)c2)C2(C1)SCC(=O)N2c1nc2ccccc2s1 (configuration not stated)	> 100 µM (inactive)
COc1ccc(-c2cn3c(nc4ccccc43)c(C)n2)cc1	41 µM (inactive)
Cc1cn(C2CC3C(COCN3O)O2)c(=O)[nH]c1=O (configuration not stated)	> 100 µM (inactive)
CN(C)c1nc(NC23CC4CC(CC(C4)C2)C3)nc(N(C)C)n1	15.7 µM (inactive)
CCC1=C(C=O)c2cc3[nH]c(cc4nc(c5c6[nH]c(cc1n2)c(C)c6C(=O)C5C(=O)OC)C(CCC(=O)OC)C4C)c(C)c3CC (configuration not stated)	> 100 µM (inactive)

GI50 in this record for C[n+]1c2ccccc2c(C(=O)NC(CCCNC(=N)N)C(=O)O)c2ccccc21 (configuration not stated) : > 100 µM (inactive)

GI50 in this record for COC(=N)CCCl : > 100 µM (inactive)

GI50 in this record for CCOC(=O)C(NC(=O)OCc1ccccc1)C(=O)O (configuration not stated) : > 100 µM (inactive)

GI50 in this record for COc1cc([C@@H]2C3C(=O)c4ccccc4C3[C@@H](c3cc(OC)c(OC)c(OC)c3)C23Cc2ccccc2C3=O)cc(OC)c1OC (some centres not stated) : > 100 µM (inactive)

GI50 in this record for Clc1ccc2c(c1)[nH]c1c2nc2sccn21 : > 100 µM (inactive)

GI50 in this record for CCOC(=O)C(=O)N1C(C)=C(C(=O)OCC)CC(C(=O)OCC)=C1C : > 100 µM (inactive)

GI50 in this record for CC(=O)Nc1c(C)cc2c(nc3n2CCC3O)c1[N+](=O)[O-] (configuration not stated) : > 100 µM (inactive)

GI50 in this record for COc1ccc(/C=C2\CCS(=O)(=O)c3ccccc3C2=O)cc1OC : 28.1 µM (inactive)

###

Recorded GI50 values for a group of compounds are listed next.
# Test system: M14
# protocol.text: NCI tumour cell line growth inhibition, 48 h
The source made the active and inactive calls. No stated cut-off is given here; in the data, active = GI50 up to about 1.1 µM and inactive = higher. Peptide text beside a SMILES is read from it. * marks the point of attachment. Boc = CC(C)(C)OC(=O)*

# example entries with known answers
compound	reported.value
COc1cccc(N2C(=O)C3c4[nH]c5ccc(C)cc5c4C4CCC(C(C)(C)C)CC4C3C2=O)c1 (centres undefined)	8 µM (inactive)
CC(C(=O)c1ccc(Cl)cc1)/C(=N/NC(=O)NN)C(=O)Nc1cccc(C(F)(F)F)c1 (centres undefined)	> 100 µM (inactive)
COc1ccc(C(=O)Nc2ccn(CCOC(=O)c3ccc(OC)cc3)c(=O)n2)cc1	> 100 µM (inactive)

# next compound below
GI50 in this record for CCOCC(NC(=O)C(CC(C)C)NC(=O)OC(C)(C)C)C(N)=O (stereo not drawn) (Boc-Leu-Ser(Et)-NH2; configuration not given here) : > 100 µM (inactive)

###

Recorded GI50 values for a group of compounds are listed next.
# Test system: A549
# protocol.text: NCI tumour cell line growth inhibition, 48 h
Active and inactive are the calls of the source. Rule as the data show it: active = GI50 up to about 1.1 µM and inactive = higher.

GI50 in this record for CSC1=N/C(=C\c2cccs2)C(=O)N1CN1CCCCC1 : > 100 µM (inactive)

GI50 in this record for COc1cc(OC)cc(C(=O)Cc2c(C(=O)c3ccccc3)c3ccccc3n2C(=O)c2ccccc2)c1 : 25.3 µM (inactive)

GI50 in this record for CCOC(=O)C(NC(=O)OCc1ccccc1)C(=O)O (configuration not stated) : > 100 µM (inactive)

GI50 in this record for N#CC1=C(Nc2ccccc2)SC=C(c2ccccc2)N=C1NCc1ccccc1 : > 100 µM (inactive)

GI50 in this record for C[P+]1(Cc2ccccc2)CCCC1 : > 100 µM (inactive)

GI50 in this record for N#CC(N)(C(=O)C(=O)NCCCNC(=O)C(=O)C(N)(C#N)c1ccc(Cl)cc1)c1ccc(Cl)cc1 (configuration not stated) : > 100 µM (inactive)

GI50 in this record for CCCCCCCCCC[C@H](O)[C@H]1CC[C@@H]([C@@H](O)CC[C@H](O)[C@@H]2CCC(CCCCCCC[C@@H](O)CC3=C[C@H](C)OC3=O)O2)O1 (some centres not stated) : 1.77 µM (inactive)

GI50 in this record for Cn1c2ccccc2c(=O)c2cccc(C(=O)NC(CCCNC(=N)N)C(=O)O)c21 (configuration not stated) : > 100 µM (inactive)
